read-out: Transforming Growth Factor (TGFA), TGFA (gene 7039); test: LTEA_HepaRG_TGFA: Life Technologies and Expression Analysis (LTEA) Assay for Transforming Growth Factor (TGFA) using HepaRG (AID 2283532); conditions: mRNA level, 48 h; actives raise or lower the signal
Calls of active or inactive are those of the source. The calls were made as follows: active = hit-call score of the fitted dose curve at least 0.9, where 1 is the maximum; inactive = score below 0.9.
valueKind: AC50

These recorded examples may help you get a feel for the data.
CCCCCCCCc1ccc(O)cc1	inactive
O=[N+]([O-])c1ccc(O)c([N+](=O)[O-])c1	inactive
O=c1[nH]c(=O)[nH]c(=O)[nH]1	inactive
C=C(C)C(=O)[O][Sn]([CH2]CCC)([CH2]CCC)[CH2]CCC	2.42 µM (active)
CCOP(=S)(OCC)Oc1nc(Cl)c(Cl)cc1Cl	inactive
ClCC(Cl)CCl	inactive
CC(C)(c1ccccc1)c1ccc(O)c(C(C)(C)c2ccccc2)c1	inactive
O=C(O)C(F)(F)C(F)(F)C(F)(F)C(F)(F)C(F)(F)C(F)(F)C(F)(F)C(F)(F)C(F)(F)C(F)(F)F	inactive

Item under review: CC(C)(C)c1cc(O)ccc1O . Reported AC50?
inactive

What about this molecule? O=C1C2(Cl)C3(Cl)C4(Cl)C(Cl)(Cl)C5(Cl)C3(Cl)C1(Cl)C5(Cl)C24Cl (configuration not stated)
inactive

What about COc1cc(-c2ccc(N)c(OC)c2)ccc1N ?
inactive

// same read-out, input: O=C(Nc1ccc2[nH]ccc2c1)c1cc2cc(F)ccc2n1Cc1cccc(F)c1
29.3 µM (active)
